# System: Caco-2 cells
# measurement.notes: Cellular uptake / intracellular accumulation in Caco-2 cells, with or without transporter inhibitors
# Type: in vitro ADME, human
# details: 100 µM cyclosporine A (P-glycoprotein and MRP2 inhibitor)
recorded.metric: Intracellular accumulation after pre-treatment with cyclosporine A

>>> print(df.to_string())
                             given_smiles       endpoint_result
0    O=c1cc(-c2ccc(O)cc2)oc2cc(O)cc(O)c12     clearly increased
1     Cc1cc(O)c2c(c1)C(=O)c1cccc(O)c1C2=O  increased the uptake
2          Oc1ccc(/C=C/c2cc(O)cc(O)c2)cc1     clearly increased
3  Cc1cc(O)c2c(c1)C(=O)c1cc(O)cc(O)c1C2=O  increased the uptake
